Target: human GOAT (ghrelin O-acyl transferase) (Homo sapiens (Human), UniProt Q96T53)
Sequence (Q96T53 whole entry): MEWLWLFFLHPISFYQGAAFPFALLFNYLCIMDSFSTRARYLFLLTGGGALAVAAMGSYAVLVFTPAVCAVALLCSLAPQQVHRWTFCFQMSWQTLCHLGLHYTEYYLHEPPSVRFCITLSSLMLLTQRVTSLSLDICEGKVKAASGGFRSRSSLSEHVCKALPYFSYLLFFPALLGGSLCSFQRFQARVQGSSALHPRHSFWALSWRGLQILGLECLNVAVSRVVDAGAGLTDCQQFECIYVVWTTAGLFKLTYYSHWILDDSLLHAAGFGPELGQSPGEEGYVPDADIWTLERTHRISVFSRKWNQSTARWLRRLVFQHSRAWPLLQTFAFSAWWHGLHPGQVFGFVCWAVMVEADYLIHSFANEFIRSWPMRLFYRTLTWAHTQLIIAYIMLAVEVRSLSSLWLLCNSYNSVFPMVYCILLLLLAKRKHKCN
Assay: Determination of hGOAT activity in HEK293 cells after incubation with test compound (acyl-ghrelin ELISA)
Conditions: HEK293 cells stably transfected with preproghrelin and human GOAT cDNA; octanoate-BSA 100 μM; 5 hours incubation; acyl-ghrelin in medium by ELISA; 8 compound concentrations
pIC50: −log10 of the molar value.
Below: a set of entries, each annotated with reported pIC50.
metric_name: pIC50

[[record]]
line_notation = "Cc1nc2ncnn2c(N)c1Cc1ccc(C(F)F)cc1"
metric_name = "pIC50"
experimental_result = 8.01

[[record]]
line_notation = "Cc1nc2ncnn2c(N)c1Cc1ccc(OC(F)(F)F)c(C(N)=O)c1"
metric_name = "pIC50"
experimental_result = 8.03

[[record]]
line_notation = "Cc1nc2ncnn2c(N)c1Cc1ccc(Br)c(OC(F)F)n1"
metric_name = "pIC50"
experimental_result = 9.89

[[record]]
line_notation = "COC(=O)c1cc(Cc2c(C)nc3ncnn3c2N)ccc1C(F)(F)F"
metric_name = "pIC50"
experimental_result = 9.24

[[record]]
line_notation = "Cc1nc2ncnn2c(N)c1Cc1ccc(Br)c(NCC(F)(F)F)n1"
metric_name = "pIC50"
experimental_result = 9.64


====

Target: human GOAT (ghrelin O-acyl transferase) (Homo sapiens (Human))
Assay: Determination of hGOAT activity in HEK293 cells after incubation with test compound (acyl-ghrelin ELISA)
Details: HEK293 cells stably transfected with preproghrelin and human GOAT cDNA; octanoate-BSA 100 μM; 5 hours incubation; acyl-ghrelin in medium by ELISA; 8 compound concentrations
metric_name: IC50 (nM)

[[record]]
compound = "Nc1c(Cc2ccc(C(F)(F)F)cc2)c(Cl)nc2ncnn12 [Example 25.3]"
experimental_result = 5.7

[[record]]
compound = "Cc1nc2ncnn2c(N)c1Cc1ccc([S+]([O-])C(F)(F)F)cc1 (stereo not drawn) [Example 19.1]"
experimental_result = 4.9

[[record]]
compound = "Cc1nc2ncnn2c(N)c1Cc1ccc(OC(F)(F)F)c(C#N)c1 [Example 20.1]"
experimental_result = 9.2

[[record]]
compound = "Cc1nc2ncnn2c(N)c1Cc1ccc(OC(F)(F)F)cc1 [Example 6.1]"
experimental_result = 3.9

[[record]]
compound = "COC(=O)c1cc(Cc2c(C)nc3ncnn3c2N)ccc1OC(F)(F)F [Example 15.1]"
experimental_result = 0.83

[[record]]
compound = "Cc1nc2ncnn2c(N)c1Cc1ccc(C#N)c(NCC(F)(F)F)n1 [Example 7.6]"
experimental_result = 0.69

[[record]]
compound = "COc1cc(C(F)(F)F)ccc1Cc1c(C)nc2ncnn2c1N [Example 6.2]"
experimental_result = 0.69

[[record]]
compound = "Cc1nc2ncnn2c(N)c1Cc1ccc(Br)c(N2CCC(C(F)(F)F)C2)n1 (stereo not drawn) [Example 23.4]"
experimental_result = 0.7

[[record]]
compound = "Nc1c(Cc2ccc(C(F)(F)F)cc2)c(C(F)F)nc2ncnn12 [Example 17.1]"
experimental_result = 0.95


====

The entries below come with measured IC50 values attached.
Molecular target: human GOAT (ghrelin O-acyl transferase) (Homo sapiens (Human))
Assay: Determination of hGOAT activity in HEK293 cells after incubation with test compound (acyl-ghrelin ELISA)
Settings: HEK293 cells stably transfected with preproghrelin and human GOAT cDNA; octanoate-BSA 100 μM; 5 hours incubation; acyl-ghrelin in medium by ELISA; 8 compound concentrations
metric_name: IC50 (nM)

[[record]]
molecule = "Cc1nc2ncnn2c(N)c1Cc1ccc(C#N)c(OCC2(C(F)(F)F)CC2)n1 [Example 9.2]"
experimental_result = 8.3

[[record]]
molecule = "Cc1nc2ncnn2c(N)c1Cc1ccc(Br)c(C2(C#N)CC(F)(F)C2)n1 [Example 14.1]"
experimental_result = 0.31

[[record]]
molecule = "Cc1nc2ncnn2c(N)c1Cc1ccc(C(F)(F)F)cc1F [Example 21.1]"
experimental_result = 8.1

[[record]]
molecule = "Cc1nc2ncnn2c(N)c1Cc1ccc(Br)c(OCCF)n1 [Example 8.3]"
experimental_result = 0.3

[[record]]
molecule = "Cc1nc2ncnn2c(N)c1Cc1ccc(-c2c[nH]nc2C(F)(F)F)c(N)n1 [Example 16.1]"
experimental_result = 3.1

[[record]]
molecule = "Cc1nc2ncnn2c(N)c1Cc1ccc(Br)c(N2CCC(O)(C(F)(F)F)C2)n1 (stereo not drawn) [Example 23.5]"
experimental_result = 0.83

[[record]]
molecule = "Cc1nc2ncnn2c(N)c1Cc1ccc(C#N)c(OCCF)n1 [Example 9.4]"
experimental_result = 3.7

[[record]]
molecule = "Cc1nc2ncnn2c(N)c1Cc1ccc(Br)c(-n2ccc(C(F)(F)F)n2)n1 [Example 10.2]"
experimental_result = 2.8

[[record]]
molecule = "Cc1nc2ncnn2c(N)c1Cc1ccc(C(F)(F)F)c(N)n1 [Example 3.4]"
experimental_result = 6.5


====

Molecular target: UniProt Q96T53
Assay: Determination of hGOAT activity in HEK293 cells after incubation with test compound (acyl-ghrelin ELISA)
Conditions: HEK293 cells stably transfected with preproghrelin and human GOAT cDNA; octanoate-BSA 100 μM; 5 hours incubation; acyl-ghrelin in medium by ELISA; 8 compound concentrations
Description: Determination of hGOAT Activity in HEK293 Cells after incubation with test compound HEK293 cells stably transfected with two expression vectors, one coding for preproghrelin cDNA and a second for the expression of human GOATcDNA are used as a cellular model. After feeding the cells with octanoic acid for 5 hours, acyl-ghrelin is measured in cell culture medium by an ELISA procedure. Cellline: Hek293 hGOAT/PPGhrl Clone #1B8Sodium octanoate, Sigma, Cat.-No. C5038 BSA: Sigma, Cat.-No. A8806 […]
Listing: log10 IC50 of selected molecules
metric_name: log10 IC50 (log10 of the value in nM)

[[record]]
line_notation = "Cc1nc2ncnn2c(N)c1Cc1ccc(C(F)(F)F)nc1OC1CCC1"
metric_name = "log10 IC50"
experimental_result = 0.48

[[record]]
line_notation = "Cc1nc2ncnn2c(N)c1Cc1ccc(Br)c(N2CCC(F)(F)CC2)n1"
metric_name = "log10 IC50"
experimental_result = -0.54

[[record]]
line_notation = "Cc1nc2ncnn2c(N)c1Cc1ccc(C(F)(F)F)c(N2CCOCC2)n1"
metric_name = "log10 IC50"
experimental_result = -0.19

[[record]]
line_notation = "Cc1nc2ncnn2c(N)c1Cc1ccc(SC(F)(F)F)cc1"
metric_name = "log10 IC50"
experimental_result = 0.23

[[record]]
line_notation = "Cc1nc2ncnn2c(N)c1Cc1ccc(OC(F)(F)F)c(N=S2(=O)CCC2)c1"
metric_name = "log10 IC50"
experimental_result = -0.17

[[record]]
line_notation = "Cc1nc2ncnn2c(N)c1Cc1ccc(C#N)c(OCCCF)n1"
metric_name = "log10 IC50"
experimental_result = -0.25

[[record]]
line_notation = "Cc1nc2ncnn2c(N)c1Cc1cccc(OC(F)F)n1"
metric_name = "log10 IC50"
experimental_result = 0.94

[[record]]
line_notation = "Cc1nc2ncnn2c(N)c1Cc1ccc(OC(F)F)c(Br)n1"
metric_name = "log10 IC50"
experimental_result = -0.52

[[record]]
line_notation = "Cc1nc2ncnn2c(N)c1Cc1ccc(Br)c(OCCCF)n1"
metric_name = "log10 IC50"
experimental_result = -0.57

[[record]]
line_notation = "Cc1nc2ncnn2c(N)c1Cc1ccc(Br)c(N2CC(F)(F)C2)n1"
metric_name = "log10 IC50"
experimental_result = -0.44

[[record]]
line_notation = "Cc1nc2ncnn2c(N)c1Cc1ccc(C#N)c(NCC(F)F)n1"
metric_name = "log10 IC50"
experimental_result = -0.43

[[record]]
line_notation = "Cc1nc2ncnn2c(N)c1Cc1ccc(OC(F)(F)F)c(C(=O)NC(C)C)c1"
metric_name = "log10 IC50"
experimental_result = 0.93

[[record]]
line_notation = "Cc1nc2ncnn2c(N)c1Cc1ccc(Br)c(N2CCC(F)(F)C2)n1"
metric_name = "log10 IC50"
experimental_result = -0.60

[[record]]
line_notation = "Cc1nc2ncnn2c(N)c1Cc1ccc(C(F)(F)F)c(C#N)n1"
metric_name = "log10 IC50"
experimental_result = 0.66

[[record]]
line_notation = "Cc1nc2ncnn2c(N)c1Cc1ccc(OC(F)F)cc1"
metric_name = "log10 IC50"
experimental_result = 0.28

[[record]]
line_notation = "Cc1nc2ncnn2c(N)c1Cc1ccc(OC(F)F)c(Br)c1"
metric_name = "log10 IC50"
experimental_result = 0.30

[[record]]
line_notation = "Cc1nc2ncnn2c(N)c1Cc1cccc(-c2cn(C)nc2C(F)(F)F)n1"
metric_name = "log10 IC50"
experimental_result = 0.23

[[record]]
line_notation = "COc1cc(Cc2c(Cl)nc3ncnn3c2N)ccc1C(F)(F)F"
metric_name = "log10 IC50"
experimental_result = 0.00

[[record]]
line_notation = "Cc1nc2ncnn2c(N)c1Cc1ccc(C(F)(F)F)c(-c2ccco2)n1"
metric_name = "log10 IC50"
experimental_result = -0.40

[[record]]
line_notation = "Cc1nc2ncnn2c(N)c1Cc1ccc(Br)c(OCC(F)F)n1"
metric_name = "log10 IC50"
experimental_result = -0.52

[[record]]
line_notation = "Cc1nc2ncnn2c(N)c1Cc1ccc(OC(F)F)c(C#N)n1"
metric_name = "log10 IC50"
experimental_result = 0.64

[[record]]
line_notation = "Cc1nc2ncnn2c(N)c1Cc1ccc(Br)c(-n2cc(C(F)(F)F)cn2)n1"
metric_name = "log10 IC50"
experimental_result = 0.93

[[record]]
line_notation = "CCOc1cc(C(F)(F)F)ccc1Cc1c(C)nc2ncnn2c1N"
metric_name = "log10 IC50"
experimental_result = 0.38

[[record]]
line_notation = "Cc1nc2ncnn2c(N)c1Cc1ccc(OC(F)(F)F)c(N=S(C)(C)=O)c1"
metric_name = "log10 IC50"
experimental_result = -0.02

[[record]]
line_notation = "COc1cc(Cc2c(C)nc3ncnn3c2N)ccc1C(F)(F)F"
metric_name = "log10 IC50"
experimental_result = -0.04

[[record]]
line_notation = "Cc1nc2ncnn2c(N)c1Cc1ccc(C(F)(F)F)cc1Br"
metric_name = "log10 IC50"
experimental_result = 0.70

[[record]]
line_notation = "Cc1nc2ncnn2c(N)c1Cc1ccc(OC(F)(F)F)c(Br)c1"
metric_name = "log10 IC50"
experimental_result = 0.04

[[record]]
line_notation = "COc1cc(C(F)(F)F)ccc1Cc1c(Cl)nc2ncnn2c1N"
metric_name = "log10 IC50"
experimental_result = -0.08

[[record]]
line_notation = "Cc1nc2ncnn2c(N)c1Cc1ccc(Br)c(N2Cc3ccc(F)cc3C2)n1"
metric_name = "log10 IC50"
experimental_result = -0.07

[[record]]
line_notation = "Cc1nc2ncnn2c(N)c1Cc1ccc(C(F)(F)F)c(Br)c1"
metric_name = "log10 IC50"
experimental_result = 0.04

